Hi there, I'd appreciate the recorded pEC50 for every entry that follows.
# EXPERIMENTAL SYSTEM: Muscarinic acetylcholine receptor M1 (Homo sapiens, UniProt P11229)
# Sequence (P11229 whole entry): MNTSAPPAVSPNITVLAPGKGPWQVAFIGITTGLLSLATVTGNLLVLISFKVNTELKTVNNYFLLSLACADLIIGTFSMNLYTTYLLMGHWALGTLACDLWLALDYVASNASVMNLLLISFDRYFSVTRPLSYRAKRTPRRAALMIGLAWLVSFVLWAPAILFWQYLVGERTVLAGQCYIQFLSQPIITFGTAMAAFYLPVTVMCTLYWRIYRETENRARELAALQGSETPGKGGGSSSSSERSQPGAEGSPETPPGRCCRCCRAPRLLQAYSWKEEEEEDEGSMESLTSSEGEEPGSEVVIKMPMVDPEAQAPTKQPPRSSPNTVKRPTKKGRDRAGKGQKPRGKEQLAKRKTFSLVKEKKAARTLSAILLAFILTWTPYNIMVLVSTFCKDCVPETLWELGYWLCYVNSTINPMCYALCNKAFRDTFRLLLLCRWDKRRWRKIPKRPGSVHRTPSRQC
# RUN DESCRIPTION: Modulatory activity at M1 receptor (unknown origin) expressed in CHO-K1 cells assessed as intracellular calcium flux incubated for 30 mins by Fluo-8 dye based FLIPR analysis
pEC50: −log10 of the molar value.

[
  {
    "SMILES STRING": "CCOC(=O)N1CC2(CC[C@@H](N3CCN(c4cc(F)cnc4-c4cncs4)CC3)C2)C1",
    "pEC50": "> 7.70"
  },
  {
    "SMILES STRING": "CCOC(=O)N1CC2(CC[C@@H](N3CCN(c4cc(F)cnc4-c4cnn(C(C)C)c4)CC3)C2)C1",
    "pEC50": "< 5.00"
  },
  {
    "SMILES STRING": "CCOC(=O)N1CC2(CC[C@@H](N3CCN(c4cc(F)cnc4-c4cccc(CO)c4)CC3)C2)C1",
    "pEC50": "< 5.00"
  }
]

Which pEC50 is reported with Muscarinic acetylcholine receptor M1 (Homo sapiens, UniProt P11229) for this entry: "CCOC(=O)N1CC2(CC[C@@H](N3CCN(c4cc(F)cnc4-c4ccc(=O)[nH]c4)CC3)C2)C1" ?
> 7.70
